All values here come from PubChem BioAssay.

Measured growth inhibition, listed per entry.
experiment: Restrictive medium S. cerevisiae growth inhibition, OD615, pilot screen of yeast lifespan reduction project, restrictive growth control (AID 706); conditions: OD615, 48 h, at 10 µM, active compounds read high;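 also: modified DeaD lifespan yeast strain shifted to restrictive glucose medium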
The source made the active and inactive calls.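 The calls were made as follows: active = growth inhibition above a set limit, 3 SD over mean compound inhibition, in both replicates (cut at about 43% in these data); inconclusive = above the limit in only one replicate; inactive = at or below the limit in both replicates.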

Here is how some molecules turned out for growth inhibition.
1) CCCS(=O)(=O)c1nc(S(=O)(=O)c2ccc(C)cc2)c(NCCCN2CCOCC2)s1    -0.48% (inactive)
2) COC(=O)Cn1c(=NC(=O)C2CC2)sc2c(C)cc(C)cc21    -19% (inactive)
3) O=C(C1CC(c2ccc(F)cc2)=NO1)N1CCN(c2ccccc2)CC1 (stereo unspecified)    -3.47% (inactive)
4) Cc1ccc(-c2nn(C)c(=O)c3ccccc23)cc1S(=O)(=O)N1CCCC1    -6.2% (inactive)
5) O=S(=O)(NCCO)c1cccc2cccnc12    -10.2% (inactive)
6) O=C(CNS(=O)(=O)c1cccc2nsnc12)NC1CCCCC1    -16.5% (inactive)
7) CN(C)Cc1cc(C(C)(C)C)c(O)c(C(C)(C)C)c1    -4.33% (inactive)
8) Cc1ccc(S(=O)(=O)N(C)Cc2nc(-c3ccc(Br)cc3)no2)cc1    -0.88% (inactive)

Proceeding to the next molecule to report its growth inhibition.
Record summary for CCCc1ccc(Oc2cn[nH]c2-c2ccc(O)cc2O)cc1 : reported growth inhibition = -10.3% (inactive)
